// reported mMC3R (IC50) Fold Diff. for each item listed
# testedOn: mMC3R (Mus musculus)
# assayComment: 125I-NDP-MSH competitive binding assay at mMC3R
# Parameters: expressed in transfected cells
# assayContext: Table 3; vs Ac-His-DPhe-Arg-Trp-NH2; negative = more potent than control
Square brackets hold non-standard residues; d marks the D form. Peptide text beside a SMILES is read from it. dPhe(4-I) = N[C@H](Cc1ccc(I)cc1)C(=O)O; Bta = N[C@@H](Cc1csc2ccccc12)C(=O)O
Give the value as a plain number.

compound	mMC3R (IC50) Fold Diff.
CC(=O)N[C@@H](CCCNC(=N)N)C(=O)N[C@@H](CCCNC(=N)N)C(=O)N[C@H](Cc1ccc(I)cc1)C(=O)N[C@@H](Cc1ccccc1)C(N)=O [SKY4-48-26, Ac-Arg-Arg-(pI)DPhe-Phe-NH2]	-8

Can you share its mMC3R (IC50) Fold Diff.? I mean this compound: CC(=O)N[C@@H](Cc1c[nH]cn1)C(=O)N[C@@H](CCCNC(=N)N)C(=O)N[C@H](Cc1ccc(I)cc1)C(=O)N[C@@H](Cc1csc2ccccc12)C(N)=O [SKY4-48-11, Ac-His-Arg-(pI)DPhe-3Bal-NH2] (Ac-HR[dPhe(4-I)][Bta]-NH2)
-15

Request the reported mMC3R (IC50) Fold Diff. associated with CC(=O)N[C@@H](CCCNC(=N)N)C(=O)N[C@@H](CCCNC(=N)N)C(=O)N[C@H](Cc1ccc(I)cc1)C(=O)N[C@@H](Cc1csc2ccccc12)C(N)=O [SKY4-48-10, Ac-Arg-Arg-(pI)DPhe-3Bal-NH2]
-52

Fill blank: measured mMC3R (IC50) Fold Diff. of the compound CC(=O)N[C@@H](Cc1ccccc1)C(=O)N[C@@H](CCCNC(=N)N)C(=O)N[C@H](Cc1ccc(I)cc1)C(=O)N[C@@H](Cc1csc2ccccc12)C(N)=O [SKY4-48-15, Ac-Phe-Arg-(pI)DPhe-3Bal-NH2] (Ac-FR[dPhe(4-I)][Bta]-NH2) is ____.
-9

----------
# testedOn: mMC3R (Mus musculus, UniProt P33033)
# Sequence (P33033 whole entry): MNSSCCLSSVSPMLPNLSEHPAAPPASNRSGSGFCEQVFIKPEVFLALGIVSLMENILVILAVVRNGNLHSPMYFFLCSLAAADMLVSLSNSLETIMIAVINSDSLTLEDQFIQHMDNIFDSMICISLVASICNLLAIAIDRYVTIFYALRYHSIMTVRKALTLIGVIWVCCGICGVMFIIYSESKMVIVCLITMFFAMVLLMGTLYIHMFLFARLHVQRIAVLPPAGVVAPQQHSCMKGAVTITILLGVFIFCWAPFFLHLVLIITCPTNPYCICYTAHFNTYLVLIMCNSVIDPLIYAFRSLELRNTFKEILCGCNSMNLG
# assayContext: Table 1; Schild analysis, pA2 = -Log(Ki); Full Agonist = full dose-response, No Activity = no shift in EC50
Square brackets hold non-standard residues; d marks the D form. Peptide text beside a SMILES is read from it. dPhe(4-I) = N[C@H](Cc1ccc(I)cc1)C(=O)O; 2Nal = N[C@@H](Cc1ccc2ccccc2c1)C(=O)O; Bta = N[C@@H](Cc1csc2ccccc12)C(=O)O
measuredQuantity: mMC3R Antagonist pA2 ± SEM

compound	reported
CC(=O)N[C@@H](Cc1csc2ccccc12)C(=O)N[C@@H](CCCNC(=N)N)C(=O)N[C@H](Cc1ccc(I)cc1)C(=O)N[C@@H](Cc1ccccc1)C(N)=O [SKY5-146-4, Ac-3Bal-Arg-(pI)DPhe-Phe-NH2] (Ac-[Bta]R[dPhe(4-I)]F-NH2)	No Activity
CC(=O)N[C@@H](Cc1csc2ccccc12)C(=O)N[C@@H](CCCNC(=N)N)C(=O)N[C@H](Cc1ccc(I)cc1)C(=O)N[C@@H](Cc1ccc2ccccc2c1)C(N)=O [SKY4-48-37, Ac-3Bal-Arg-(pI)DPhe-Nal(2′)-NH2] (Ac-[Bta]R[dPhe(4-I)][2Nal]-NH2)	No Activity

Hello, the source for this data is patent US10899793B2, in case you need it.
